Reference source: patent US20220332800A1

# target_system: T1, ZIKV-VLP (Native Antigen Inc.) (Zika virus)
# T1 construct: also called Zika VLP; ZVLP
# test: BLI binning on ZIKV-VLP; 1st mAb: 242-3
Reported response of 2nd mAb values are given for each entry in this list.
The answer should be written as a number, with no unit following it.

These solved cases illustrate the format of a correct answer.
{"columns": ["binder", "response of 2nd mAb"],
 "data": [
  ["anti-ZIKV antibody 11-3 (antibody, V domains shown, also called clone 11-3) VH: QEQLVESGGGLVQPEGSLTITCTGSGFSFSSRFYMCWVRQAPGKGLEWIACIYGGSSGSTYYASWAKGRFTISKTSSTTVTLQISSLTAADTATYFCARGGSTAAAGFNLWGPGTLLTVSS VL: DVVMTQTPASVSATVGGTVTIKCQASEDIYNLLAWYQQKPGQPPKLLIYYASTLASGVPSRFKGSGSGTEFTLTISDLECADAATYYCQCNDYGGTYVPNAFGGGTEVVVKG", 0.42],
  ["anti-ZIKV antibody 306-2 (antibody, V domains shown) VH: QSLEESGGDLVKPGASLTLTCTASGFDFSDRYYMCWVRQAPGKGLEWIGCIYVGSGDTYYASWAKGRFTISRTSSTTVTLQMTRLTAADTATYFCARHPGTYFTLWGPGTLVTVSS VL: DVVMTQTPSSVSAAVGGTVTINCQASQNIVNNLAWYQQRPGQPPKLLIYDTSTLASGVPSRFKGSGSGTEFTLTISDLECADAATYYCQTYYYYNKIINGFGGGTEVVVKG", 0.04]
]}

INPUT: Item anti-ZIKV antibody 78-2 (antibody, V domains shown, also called clone 78-2) VH: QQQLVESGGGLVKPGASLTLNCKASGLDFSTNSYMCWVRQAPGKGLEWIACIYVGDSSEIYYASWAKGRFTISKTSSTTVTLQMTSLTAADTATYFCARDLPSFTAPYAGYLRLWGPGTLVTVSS VL: QPVLTQPPSLSASLGTTARLTCTLRTGYNVGDYPLLWLQRVPGRPPRYLLTYHTEEFKHQGSGVHSRFSGSKDASENAGVLSISGLQPEDEANYYCYTVHATESSLHYVFGGGTQLTVTG has what recorded response of 2nd mAb?
OUTPUT: 0.33
